From: ChEMBL document CHEMBL5665443

- Target entity: UniProtKB Q9UIF7
- Sequence (Q9UIF7 whole entry): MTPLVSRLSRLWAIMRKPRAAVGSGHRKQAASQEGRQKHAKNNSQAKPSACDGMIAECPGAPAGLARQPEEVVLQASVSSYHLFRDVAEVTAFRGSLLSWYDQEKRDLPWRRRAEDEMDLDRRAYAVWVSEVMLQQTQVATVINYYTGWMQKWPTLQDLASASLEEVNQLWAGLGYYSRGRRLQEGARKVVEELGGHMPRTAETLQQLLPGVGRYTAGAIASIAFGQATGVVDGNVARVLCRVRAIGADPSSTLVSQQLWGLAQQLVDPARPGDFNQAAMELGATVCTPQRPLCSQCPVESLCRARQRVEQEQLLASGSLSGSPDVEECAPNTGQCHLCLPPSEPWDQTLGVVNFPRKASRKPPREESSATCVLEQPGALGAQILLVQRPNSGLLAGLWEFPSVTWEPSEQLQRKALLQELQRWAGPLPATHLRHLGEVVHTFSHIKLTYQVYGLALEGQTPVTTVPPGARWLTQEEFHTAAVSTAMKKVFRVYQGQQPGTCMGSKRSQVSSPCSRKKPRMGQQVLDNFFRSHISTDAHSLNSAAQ
- Study conditions: Compound Concentration 10.0 uM, Hit No;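 further: human MUTYH activity read as 594 nm fluorescence from cleavage and release of a quenched DNA duplex, coupled with APE1 for strand incision, lower signal meaning inhibition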
- Description: Inhibition of MUTYH by quantifying inhibition of MUTYH-mediated cleavage and dissociation of quenched duplex DNA oligonucleotides, measured as fluorescence at 594 nm. To generate a functional strand incision and increase turn-over this assay is coupled to APE1.
Reported property: inhibition (%)
A number alone suffices; assume %.

GET /values?readout=inhibition&item= O=C(O)CCC/C=C\C[C@H]1C(=O)C[C@@H](O)[C@@H]1/C=C/[C@@H](O)CCc1ccccc1
15.1

GET /values?readout=inhibition&item= CN1CC(=O)N=C1NC(=O)Nc1cccc(Cl)c1
3.99

GET /values?readout=inhibition&item= C[C@H]1CN(C[C@H](Cc2ccccc2)C(=O)NCC(=O)O)CC[C@@]1(C)c1cccc(O)c1
40.2

GET /values?readout=inhibition&item= CNC[C@H](O)c1ccc(O)c(O)c1
28.8

GET /values?readout=inhibition&item= CC(C)c1noc(N2CCC(COc3ccc(-c4ccc(S(C)(=O)=O)cc4)nc3)CC2)n1
18.2

GET /values?readout=inhibition&item= Cc1c(N2CCNCC2)nc2ccc(Br)cc2c1C(=O)NC[C@H](CCC(=O)O)c1ccccc1Cl
16.7

GET /values?readout=inhibition&item= CCC[C@H](Oc1cc(C)c(-n2cc(C(F)(F)F)cn2)c(C)c1)c1ccc(C(=O)NCCC(=O)O)cc1
39.2

GET /values?readout=inhibition&item= O=c1c(Br)ccc2n1C[C@@H]1CNC[C@H]2C1
-5.79

GET /values?readout=inhibition&item= C[C@@H](Cn1c(=O)[nH]/c(=N\c2ccc(Oc3ccccn3)cc2)n(Cc2ccc(Cl)cc2)c1=O)C(=O)O
14.4

GET /values?readout=inhibition&item= O=c1[nH]c2ccccc2n1CCCN1CCN(C(c2ccccc2)c2ccccc2)CC1
1.43

GET /values?readout=inhibition&item= Clc1cccc(COc2cncc(N3CCNCC3)n2)c1
5.27

GET /values?readout=inhibition&item= Cc1nc(C#Cc2cccnc2)cs1
5.76

GET /values?readout=inhibition&item= CC1(C)Cc2c(CN3CCC4(CC3)CCN(C(=O)c3ccc(N)cn3)CC4)cccc2O1
2.36

GET /values?readout=inhibition&item= CCn1cnc2c(-c3ccc(F)c(-c4ccc(S(=O)(=O)CC)cc4OC)c3)cnnc21
16.3

GET /values?readout=inhibition&item= CCOc1cc(N2CCC(O)CC2)ccc1Nc1ncc2c(n1)N(C)c1ccccc1C(=O)N2C
18.6

GET /values?readout=inhibition&item= Cn1ncnc1COc1nn2c(-c3cc(F)ccc3F)nnc2cc1C(C)(C)C
-2.13

GET /values?readout=inhibition&item= O=C(NNS(=O)(=O)c1ccccc1)c1cc(-c2ccnnc2)ccc1F
0.332

GET /values?readout=inhibition&item= O=c1ccc2c(OCCCCc3ccccc3)c3ccoc3cc2o1
4.38

GET /values?readout=inhibition&item= CC(C)(C#Cc1ccc(NC(=O)COc2ccccc2C(=O)c2ccccc2)c(Cl)c1)C(=O)O
16.2

GET /values?readout=inhibition&item= NCC(O)c1ccc(O)cc1 (stereo unspecified)
17.4

GET /values?readout=inhibition&item= CC(CNS(=O)(=O)C(C)C)c1ccc(-c2ccc(C#N)cc2)cc1 (stereo unspecified)
-2.6

GET /values?readout=inhibition&item= N#Cc1ccc(NC(=O)Nc2ccccc2Br)c2nn[nH]c12
35.7

GET /values?readout=inhibition&item= CCO[C@H](COc1ccc(C(F)(F)F)cc1)CSc1ccc(OCC(=O)O)c(C)c1
16.2

GET /values?readout=inhibition&item= COCCc1ccc(-c2c(C)nc3c(N4CCOCC4)ccnn23)cn1
3.45

GET /values?readout=inhibition&item= CC(C)(O)c1cnc(N2C[C@@]3(CCC[C@](C)(Cn4cnc5ccc(C#N)cc54)C3)OC2=O)cn1
47.1

GET /values?readout=inhibition&item= NCCc1ccc(O)c(O)c1
17.9

GET /values?readout=inhibition&item= C[C@@H]1CCc2ncc(F)cc2[C@H]2CCCN2c2ccn3ncc(c3n2)C(=O)N1
17.4

GET /values?readout=inhibition&item= CC[C@H]1[C@@H](O)[C@@H]2[C@H](CC[C@]3(C)[C@@H]([C@H](C)CCC(=O)O)CC[C@@H]23)[C@@]2(C)CC[C@@H](O)C[C@@H]12
24.4

GET /values?readout=inhibition&item= N[C@H](C(=O)O)c1ccc(C(=O)O)c(C(=O)O)c1
10.4

GET /values?readout=inhibition&item= Cc1cccc(NC(=O)CN2CCC(c3ccccn3)CC2)c1
18.5

GET /values?readout=inhibition&item= O=C(O)c1cccc(/C=C2/C[C@@H]3[C@@H](/C=C/[C@H](O)C4CCCCC4)[C@H](O)C[C@@H]3O2)c1
18.1

GET /values?readout=inhibition&item= CC(C)NCC(O)COc1cccc2ccccc12 (stereo unspecified)
3.6

GET /values?readout=inhibition&item= O=C1N/C(=N/c2ccccc2F)S/C1=C\c1ccc(C(=O)O)cc1
3.09

GET /values?readout=inhibition&item= COc1ccc(-c2csc(NC(=O)[C@H]3CCCCN3S(=O)(=O)c3ccc(C)cc3)n2)cc1
11.1

GET /values?readout=inhibition&item= C=CC(=O)Nc1ccc2[nH]c(=O)n(C3CCN(Cc4ccc(-c5nc6cc[nH]c(=O)c6cc5-c5ccccc5)cc4)CC3)c2c1
23.4

GET /values?readout=inhibition&item= CC(C)(O)CNc1ncc(-c2ccnc(Nc3ccnc(Cl)c3)n2)c(CC2CC2)n1
0.0658

GET /values?readout=inhibition&item= COC(=O)N1CCN(C(=O)Cc2ccc(Cl)c(Cl)c2)C(CN2CCCC2)C1 (stereo unspecified)
4.69

GET /values?readout=inhibition&item= O=C(O)c1ccc(-c2coc3ncc(-c4ccccc4)cc23)cc1Cl
30.1

GET /values?readout=inhibition&item= CC1CCN(c2ccnc(NCc3cn(C)cn3)n2)CC1
19.8

GET /values?readout=inhibition&item= Cc1c(NC(=O)COc2ccc(Cl)cc2C(=O)c2cc(F)cc(C(F)(F)F)c2)ccc(C(=O)O)c1F
7.33

GET /values?readout=inhibition&item= c1ccc(N2CCN(Cc3nc4ccccc4[nH]3)CC2)nc1
2.22
